Sourced from paper PMC3206016

target_of_assay: T1, MAGI1-2/6 (MBP fusion of the second of the six PDZ domains of MAGI1) (mouse, UniProt Q6RHR9-1 448-572)
T1 construct: source: E. coli BL21 DE3, purified (amylose column, Superdex 75 gel filtration)
test_details: SPR
condition_parameters: both partners purified
Ends that are not written are not given here. * marks the point of attachment. Biotin = O=C1N[C@H]2[C@H](CS[C@H]2CCCCC(=O)*)N1
measured_property: pKd
Give bare numbers, as −log10 of the molar value.

# binder, meas_value
measured = [
    ("Biotin-GSGAGVETVV (also called MAS short; source: synthetic peptide (JPT Peptide Technologies)) [MAS_05 (short peptide of Proto-oncogene Mas: GSGAG and the last five residues)]", 2.56),
    ("Biotin-GSGAGKETVV (also called MARCH3 short; source: synthetic peptide (JPT Peptide Technologies)) [MARCH3_05 (short peptide of E3 ubiquitin-protein ligase MARCH3: GSGAG and the last five residues)]", 3.65),
    ("Biotin-GSGAGSETVV (also called FZD4 short; source: synthetic peptide (JPT Peptide Technologies)) [FZD4_05 (short peptide of Frizzled-4: GSGAG and the last five residues)]", 3.84),
]

Next binder, pKd to be filled in.
Req: What measured pKd goes with Biotin-VKRNSKETVV (also called MARCH3 long; source: synthetic peptide (JPT Peptide Technologies)) [MARCH3_10 (long peptide of E3 ubiquitin-protein ligase MARCH3: the last ten residues)] ?
Resp: 3.99
